Target: P2X7 receptor (Homo sapiens, UniProt Q99572)
Sequence (Q99572 whole entry): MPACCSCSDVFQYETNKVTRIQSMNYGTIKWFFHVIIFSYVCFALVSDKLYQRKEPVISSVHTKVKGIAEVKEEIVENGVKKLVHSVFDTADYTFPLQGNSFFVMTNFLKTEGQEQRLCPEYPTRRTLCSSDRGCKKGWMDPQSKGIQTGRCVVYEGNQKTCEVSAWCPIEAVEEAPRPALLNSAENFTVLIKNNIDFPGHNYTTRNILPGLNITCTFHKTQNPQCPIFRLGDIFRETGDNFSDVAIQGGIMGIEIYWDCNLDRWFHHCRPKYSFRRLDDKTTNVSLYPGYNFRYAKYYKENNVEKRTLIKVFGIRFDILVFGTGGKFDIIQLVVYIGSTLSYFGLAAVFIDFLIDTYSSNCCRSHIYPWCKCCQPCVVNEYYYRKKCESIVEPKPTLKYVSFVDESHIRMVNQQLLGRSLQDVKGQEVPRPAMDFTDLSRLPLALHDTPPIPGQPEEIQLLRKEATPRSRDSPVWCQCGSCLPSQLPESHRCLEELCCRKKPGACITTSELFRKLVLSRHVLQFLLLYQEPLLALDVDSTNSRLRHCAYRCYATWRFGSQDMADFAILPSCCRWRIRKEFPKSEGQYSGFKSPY
Assay: Screen Quest Fluo-8 No Wash Calcium Assay (Bz-ATP evoked Ca2+ influx, FLIPR)
Format: cell-based
Parameters: hP2X7 (IC50; nM); other: hP2X7; HEK-293 cells stably transfected with P2X7 receptor, Bz-ATP at EC80, Fluo-8 NW; potency
Details: hP2X7; HEK-293 cells stably transfected with P2X7 receptor, Bz-ATP at EC80, Fluo-8 NW; potency ranges A-D
reported_property: IC50

Item O=c1onc(Cc2ccc(F)cc2)n1Cc1cccc(C(F)(F)F)c1Cl has what recorded IC50? > 10000 nM

Item Cc1nn(C)c(C)c1Cc1noc(=O)n1CC1CCC(F)(F)CC1 has what recorded IC50? < 200 nM

Item O=c1onc(Cc2c(F)cccc2Cl)n1Cc1ccoc1 has what recorded IC50? 1000 to 10000 nM

----------
Biological target: P2X7 receptor (Rattus norvegicus)
Construct: rP2X7 (IC50; nM); other: rP2X7; HEK-293 cells stably transfected with P2X7 receptor, Bz-ATP at EC80, Fluo-8 NW; potency
Sequence (Q64663 1-595): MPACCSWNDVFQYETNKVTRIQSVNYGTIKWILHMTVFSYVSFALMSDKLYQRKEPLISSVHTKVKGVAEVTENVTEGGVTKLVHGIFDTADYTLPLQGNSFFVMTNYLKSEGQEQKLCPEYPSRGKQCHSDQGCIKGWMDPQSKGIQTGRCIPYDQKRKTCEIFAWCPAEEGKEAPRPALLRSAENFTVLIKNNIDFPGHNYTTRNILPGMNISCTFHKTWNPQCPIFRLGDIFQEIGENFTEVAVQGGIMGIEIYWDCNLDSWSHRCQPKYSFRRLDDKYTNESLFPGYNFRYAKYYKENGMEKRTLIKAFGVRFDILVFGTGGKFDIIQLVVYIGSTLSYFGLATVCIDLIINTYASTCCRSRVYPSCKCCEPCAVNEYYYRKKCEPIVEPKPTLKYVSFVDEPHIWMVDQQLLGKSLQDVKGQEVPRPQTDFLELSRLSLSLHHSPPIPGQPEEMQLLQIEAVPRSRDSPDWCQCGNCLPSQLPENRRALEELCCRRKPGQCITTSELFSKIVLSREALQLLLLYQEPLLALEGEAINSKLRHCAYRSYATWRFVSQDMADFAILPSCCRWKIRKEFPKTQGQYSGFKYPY
Test: Screen Quest Fluo-8 No Wash Calcium Assay (Bz-ATP evoked Ca2+ influx, FLIPR)
Assay type: cell-based
Settings: rP2X7; HEK-293 cells stably transfected with P2X7 receptor, Bz-ATP at EC80, Fluo-8 NW; potency ranges A-D
Exercise: for every item that follows, state its recorded IC50.

Item O=c1onc(Cc2ccc(F)cc2F)n1CC1CCC(F)(F)CC1 has what recorded IC50? < 200 nM

Item Cc1nn(C)c(C)c1Cc1noc(=O)n1CC1CCCCC1 has what recorded IC50? 200 to 1000 nM

Item COc1ccc(Cc2noc(=O)n2CC2CCCCC2)cc1 has what recorded IC50? 200 to 1000 nM

Item O=c1onc(Cc2c(F)cccc2Cl)n1CC1CCCC1 has what recorded IC50? < 200 nM

----------
Exercise: for every item that follows, state its recorded IC50.
Molecular target: P2X7 receptor (Mus musculus, UniProt Q9Z1M0)
Construct: mP2X7 (IC50; nM); other: mP2X7; HEK-293 cells stably transfected with P2X7 receptor, Bz-ATP at EC80, Fluo-8 NW; potency
Sequence (Q9Z1M0 whole entry): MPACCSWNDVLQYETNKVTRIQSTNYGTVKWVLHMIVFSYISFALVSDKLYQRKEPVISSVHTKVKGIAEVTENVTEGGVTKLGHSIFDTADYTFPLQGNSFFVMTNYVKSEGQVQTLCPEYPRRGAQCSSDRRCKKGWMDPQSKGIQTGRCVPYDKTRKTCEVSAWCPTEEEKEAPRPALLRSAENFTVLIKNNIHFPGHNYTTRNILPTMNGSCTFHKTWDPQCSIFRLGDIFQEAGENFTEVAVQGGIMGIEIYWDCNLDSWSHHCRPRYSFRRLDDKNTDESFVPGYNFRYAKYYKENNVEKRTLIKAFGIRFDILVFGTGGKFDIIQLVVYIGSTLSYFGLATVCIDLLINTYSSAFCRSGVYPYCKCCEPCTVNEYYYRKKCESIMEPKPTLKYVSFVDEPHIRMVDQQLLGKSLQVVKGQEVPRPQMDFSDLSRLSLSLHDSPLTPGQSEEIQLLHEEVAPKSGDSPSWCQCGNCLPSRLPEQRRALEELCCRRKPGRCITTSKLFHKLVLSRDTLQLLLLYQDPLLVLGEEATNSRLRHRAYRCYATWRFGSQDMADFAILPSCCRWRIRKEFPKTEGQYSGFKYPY
Experiment: Screen Quest Fluo-8 No Wash Calcium Assay (Bz-ATP evoked Ca2+ influx, FLIPR)
Type: cell-based
Conditions: mP2X7; HEK-293 cells stably transfected with P2X7 receptor, Bz-ATP at EC80, Fluo-8 NW; potency ranges A-D

Item CC(c1ccc(F)cc1)n1c(Cc2ccc(F)cc2)noc1=O (stereo not drawn) has what recorded IC50? 1000 to 10000 nM

Item O=c1snc(Cc2c(F)cccc2Cl)n1Cc1ccc(F)cc1 has what recorded IC50? 1000 to 10000 nM

Item O=c1onc(Cc2c(F)cccc2Cl)n1Cc1ncco1 has what recorded IC50? > 10000 nM

Item Cc1noc(C)c1Cn1c(Cc2c(F)cccc2Cl)noc1=O has what recorded IC50? > 10000 nM

Item Cc1ncccc1Cn1c(Cc2c(F)cccc2Cl)noc1=O has what recorded IC50? 1000 to 10000 nM

Item CC1(C)CCC(Cn2c(Cc3c(F)cccc3Cl)noc2=O)CC1 has what recorded IC50? 200 to 1000 nM

Item Cn1ccnc1Cn1c(CC2CCC(F)(F)CC2)noc1=O has what recorded IC50? > 10000 nM

Item Cc1nnc(Cn2c(Cc3c(F)cccc3Cl)noc2=O)o1 has what recorded IC50? > 10000 nM

Item Cc1nc(Cn2c(CC3CCC(F)(F)CC3)noc2=O)no1 has what recorded IC50? > 10000 nM

Item COc1cccc(Cn2c(Cc3c(F)cccc3Cl)noc2=O)c1 has what recorded IC50? 1000 to 10000 nM

Item O=c1onc(Cc2c(F)cccc2Cl)n1Cc1ccc(Cl)cc1 has what recorded IC50? 1000 to 10000 nM

Item O=c1onc(CC2CCC(F)(F)CC2)n1Cc1ccc(C(F)(F)F)nc1 has what recorded IC50? > 10000 nM

Item O=c1onc(Cc2ccc(F)cc2)n1Cc1c(F)cccc1Cl has what recorded IC50? 1000 to 10000 nM

Item Cc1ncsc1Cn1c(Cc2ccc(F)cc2)noc1=O has what recorded IC50? > 10000 nM

Item O=c1snc(CC2CCC(F)(F)CC2)n1Cc1c(F)cccc1Cl has what recorded IC50? < 200 nM

Item O=c1onc(CCc2c(F)cccc2Cl)n1CC1CCCCC1 has what recorded IC50? > 10000 nM

Item O=c1onc(Cc2ccc(F)cc2)n1Cc1ccc(F)cc1F has what recorded IC50? > 10000 nM

Item O=c1onc(Cc2cccc(F)c2)n1Cc1ccc(F)cc1 has what recorded IC50? 1000 to 10000 nM

Item Cc1ncccc1Cc1noc(=O)n1CC1CCCCC1 has what recorded IC50? 1000 to 10000 nM

Item O=c1onc(Cc2c(F)cccc2Cl)n1Cc1cccc(Cl)c1Cl has what recorded IC50? 200 to 1000 nM

Item O=c1onc(Cc2c(F)cccc2Cl)n1CC1CCCCCC1 has what recorded IC50? 200 to 1000 nM

Item O=c1onc(Cc2ccccc2Cl)n1CC1CCC(F)(F)CC1 has what recorded IC50? 200 to 1000 nM

Item O=c1onc(Cc2c(F)cccc2Cl)n1Cc1ccccc1 has what recorded IC50? 1000 to 10000 nM

Item O=c1onc(Cc2c(F)cccc2Cl)n1CCCC1CCCCC1 has what recorded IC50? 1000 to 10000 nM

Item O=c1onc(Cc2ccc(Cl)cc2Cl)n1Cc1ccc(F)cc1 has what recorded IC50? 1000 to 10000 nM

Item O=c1onc(CC2CCC(F)(F)CC2)n1Cc1ncco1 has what recorded IC50? > 10000 nM

Item O=c1onc(C(O)c2ccc(F)cc2F)n1Cc1c(F)cccc1Cl (stereo not drawn) has what recorded IC50? 1000 to 10000 nM

Item O=c1onc(Cc2c(F)cccc2Cl)n1CC1CCC2(CC1)OCCO2 has what recorded IC50? 1000 to 10000 nM

Item CCCCn1c(Cc2c(F)cccc2Cl)noc1=O has what recorded IC50? > 10000 nM

Item O=c1onc(CC2CCC(F)(F)CC2)n1Cc1nccs1 has what recorded IC50? > 10000 nM

----------
Target: P2X7 receptor (Rattus norvegicus)
Construct: rP2X7 (IC50; nM); other: rP2X7; HEK-293 cells stably transfected with P2X7 receptor, Bz-ATP at EC80, Fluo-8 NW; potency
Experiment: Screen Quest Fluo-8 No Wash Calcium Assay (Bz-ATP evoked Ca2+ influx, FLIPR)
Format: cell-based
Conditions: rP2X7; HEK-293 cells stably transfected with P2X7 receptor, Bz-ATP at EC80, Fluo-8 NW; potency ranges A-D
reported_property: IC50

Checklist item: IC50 tested on P2X7 receptor (Rattus norvegicus), entry O=c1onc(Cc2ccc(F)cc2)n1Cc1ccc(F)cc1Cl , value? 1000 to 10000 nM

Checklist item: IC50 tested on P2X7 receptor (Rattus norvegicus), entry O=c1onc(Cc2cccc(F)c2)n1CC1CCC(F)(F)CC1 , value? 200 to 1000 nM

Checklist item: IC50 tested on P2X7 receptor (Rattus norvegicus), entry O=c1onc(CN2CCCCC2)n1Cc1ccc(F)cc1 , value? 1000 to 10000 nM

Checklist item: IC50 tested on P2X7 receptor (Rattus norvegicus), entry O=c1onc(C(O)c2cccc(C(F)(F)F)c2Cl)n1Cc1ccccc1 (stereo not shown) , value? > 10000 nM

Checklist item: IC50 tested on P2X7 receptor (Rattus norvegicus), entry COc1ccc(Cn2c(Cc3ccc(F)cc3)noc2=O)c(OC)c1 , value? > 10000 nM

Checklist item: IC50 tested on P2X7 receptor (Rattus norvegicus), entry O=c1onc(Cc2ccccc2C(F)(F)F)n1CC1CCCCC1 , value? 200 to 1000 nM

Checklist item: IC50 tested on P2X7 receptor (Rattus norvegicus), entry CC(c1ccccc1)n1c(CC2CCC(F)(F)CC2)noc1=O (stereo not shown) , value? 1000 to 10000 nM

Checklist item: IC50 tested on P2X7 receptor (Rattus norvegicus), entry O=c1onc(CCc2c(F)cccc2Cl)n1CC1CCCCC1 , value? 1000 to 10000 nM

Checklist item: IC50 tested on P2X7 receptor (Rattus norvegicus), entry O=c1onc(Cc2cccc(F)c2)n1CC1CCCCC1 , value? 200 to 1000 nM

Checklist item: IC50 tested on P2X7 receptor (Rattus norvegicus), entry O=c1onc(CN2CCCCC2)n1Cc1c(F)cccc1Cl , value? < 200 nM
